- experiment: Toxicity in standardized culture assay
- condition-set: human, HBV-producing human hepatoblastoma cell line
measured-endpoint: CC50 (µg/mL)
Numbers only, in µg/mL.

- compound: "O=C1C=C2C=C[C@@H](O)C[C@H]2O1 [Compound 7, menisdaurilide]"
  measured-endpoint: "CC50"
  assay-result: 215

Please look at the following compound next.
Ask: Please report the measured CC50 for "N#C/C=C1/CC[C@H](O)C[C@@H]1O"
Reply: 72.3

* * *

- System: HBV replication
- experiment: Anti-HBV antiviral assay in standardized culture assay
- condition-set: selectivity index, ratio of CC50 to EC50
Assign labels as follows, please: Yes for SI (CC50/EC50) below 9; No for SI (CC50/EC50) equal to or exceeding 9.

Record excerpt, results attached:
- molecule: "N#C/C=C1/CC[C@H](O)C[C@@H]1O"
  label-class: "Yes"
- molecule: "O=C1C=C2C=C[C@@H](O)C[C@H]2O1 [Compound 7, menisdaurilide]"
  label-class: "Yes"
- molecule: "CO[C@H]1CC/C(=C/C#N)[C@@H](O[C@@H]2O[C@H](CO)[C@@H](O)[C@H](O)[C@H]2O)C1"
  label-class: "Yes"
- molecule: "N#C/C=C1/CC[C@H](O)C[C@@H]1O[C@@H]1O[C@H](CO)[C@@H](O)[C@H](O)[C@H]1O"
  label-class: "No"
- molecule: "CO[C@H]1C=C/C(=C/C#N)[C@@H](O[C@@H]2O[C@H](CO)[C@@H](O)[C@H](O)[C@H]2O)C1"
  label-class: "Yes"

Ask: Determine if "N#C/C=C1\C=C[C@H](O)C[C@@H]1O" shows SI (CC50/EC50) strictly lower than 9.
Reply: No

Ask: Determine if "N#C/C=C1/C=C[C@H](O)C[C@@H]1O[C@@H]1O[C@H](CO)[C@@H](O)[C@H](O)[C@H]1O" shows SI (CC50/EC50) strictly lower than 9.
Reply: No
